- System: AsPC-1 cells (K-Ras G12D)
- Procedure Summary: 2D cell growth inhibition assay, AsPC-1
- Type: cell-based
- Recorded Conditions: Homo sapiens, ASPC1, 144 h, AsPC-1, K-Ras G12D, 6 days, absolute IC50
Can you tell me IC50 for the items I'm about to list?
Numbers only, in nM.

C#Cc1c(F)ccc2cc(O)cc(-c3nc(C4CC4)c4c(N5CCCOCC5)nc(OC[C@@]56CCCN5C[C@H](F)C6)nc4c3F)c12 :: 88.5
C#Cc1c(F)ccc2cc(O)cc(-c3ncc4c(N5CCCOC6CC65)nc(OC[C@@H]5CCCN5C)nc4c3F)c12 (stereo partly shown) :: 121
C#Cc1c(F)ccc2cc(O)cc(-c3nc(OC4CC4)c4c(N5CCCOCC5)nc(OC[C@@]56CCCN5C[C@H](F)C6)nc4c3F)c12 :: 74.2
C#Cc1c(F)ccc2cc(O)cc(-c3nc(NC)c4c(N5CCCOCC5)nc(OC[C@@]56CCCN5C[C@H](F)C6)nc4c3F)c12 :: 88.2
C#Cc1c(F)ccc2cc(O)cc(-c3ncc4c(N5CCCOCC5)nc(OCC56CCCN5CCC6)nc4c3F)c12 :: 1350

Would you mind listing IC50 for each of the following compounds?
1. C#Cc1c(F)ccc2cc(O)cc(-c3ncc4c(N5CCCO[C@@H](C)C5)nc(OC[C@@]56CCCN5C[C@H](F)C6)nc4c3F)c12 (single isomer, unassigned)
2. C#Cc1c(F)ccc2cc(O)cc(-c3ncc4c(N5CCCO[C@H]6C[C@H]65)nc(OC[C@@]56CCCN5C[C@H](F)C6)nc4c3F)c12 (single isomer, unassigned)
3. C#Cc1c(F)ccc2cc(O)cc(-c3ncc4c(N5CCCOCC5)nc(OCC56CCCN5CC(C)(F)C6)nc4c3F)c12 (stereo not shown)
4. Oc1cc(-c2ncc3c(N4CCCOCC4)nc(OC[C@@]45CCCN4C[C@H](F)C5)nc3c2F)c2ccccc2c1

*A*
1. 608
2. 1510
3. 228
4. 1420

This collection of values is drawn from patent US20250019377A1.
